# System: Renilla luciferase 547
# Measurement description: Substrate specificity of various luciferases: Renilla luciferase 547
# Type: biochemical
# Conditions used: relative to coelenterazine = 100
Exercise: for every item that follows, state its recorded Maximum Luminescence Intensity (Imax, %).
Response body: numeric value in %, unit text excluded.

Which Maximum Luminescence Intensity (Imax, %) is listed for "O=c1c(Cc2ccc(F)cc2)nc2c(Cc3ccccc3)[nH]c(-c3ccc(O)cc3)cn1-2" ?
78.0

One more compound: "O=c1c(Cc2ccco2)nc2c(Cc3ccccc3)[nH]c(-c3ccccc3)cn1-2"
0.01

How about "O=c1c(Cc2ccc(F)cc2)nc2c(Cc3ccccc3)[nH]c(-c3ccccc3)cn1-2" ?
0.17

What would you report for "Oc1ccc(-c2cn3c(O)c(Cc4ccccc4)nc3c(Cc3ccccc3)n2)cc1" ?
24.5

====

# Target or system: Renilla luciferase (Renilla reniformis)
# Construct: made in house
# Sequence (P27652 1-311): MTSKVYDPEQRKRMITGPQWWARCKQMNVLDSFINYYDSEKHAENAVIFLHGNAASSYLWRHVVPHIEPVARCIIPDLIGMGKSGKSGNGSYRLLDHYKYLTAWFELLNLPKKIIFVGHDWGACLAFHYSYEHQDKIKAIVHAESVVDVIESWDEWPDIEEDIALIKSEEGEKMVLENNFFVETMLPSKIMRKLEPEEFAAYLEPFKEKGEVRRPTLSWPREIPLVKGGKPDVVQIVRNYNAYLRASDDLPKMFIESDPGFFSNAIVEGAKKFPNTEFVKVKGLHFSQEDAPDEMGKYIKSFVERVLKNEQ
# Measurement description: Substrate specificity of various luciferases: Renilla luciferase
# Assay type: biochemical
# Conditions used: relative to coelenterazine = 100
Parameter: Relative Amount of Integrated Luminescence Intensity (1 min, %)

{"columns": ["Molecule", "Result"],
 "data": [
  ["O=c1c(Cc2ccco2)nc2c(Cc3ccccc3)[nH]c(-c3ccccc3)cn1-2 [Furimazine]", "(0.01) %"],
  ["O=c1c(Cc2ccc(F)cc2)nc2c(Cc3ccccc3)[nH]c(-c3ccccc3)cn1-2 [C6d-f-Coelenterazine, C6d-f-coelenterazine]", "(0.01) %"]
]}

====

What Maximum Luminescence Intensity (Imax, %) was measured for each of the following?
# Test system: Gaussia luciferase
# Measurement description: Substrate specificity of various luciferases: Gaussia luciferase
# Format: biochemical
# Conditions used: relative to coelenterazine = 100
Form entry: value (%) — number only.

For the compound shown here, O=c1c(Cc2ccco2)nc2c(Cc3ccccc3)[nH]c(-c3ccccc3)cn1-2 [Furimazine] , give the reported Maximum Luminescence Intensity (Imax, %).
0

And the next one, O=c1c(Cc2ccc(F)cc2)nc2c(Cc3ccccc3)[nH]c(-c3ccc(O)cc3)cn1-2 [f-Coelenterazine] ?
5.0

Param item: Oc1ccc(-c2cn3c(O)c(Cc4ccccc4)nc3c(Cc3ccccc3)n2)cc1 [h-Coelenterazine]
8.2

Consider next the compound O=c1c(Cc2ccc(F)cc2)nc2c(Cc3ccccc3)[nH]c(-c3ccccc3)cn1-2 [C6d-f-Coelenterazine, C6d-f-coelenterazine] in the same way.
0

====

Assignment: determine reported Maximum Luminescence Intensity (Imax, %) for the given compounds.
# Target or system: Catalytic 19 kDa domain of Oplophorus luciferase (Oplophorus gracilirostris)
# Construct: The catalytic 19 kDa domain of Oplophorus luciferase was produced by the method described in; made in house
# Sequence (Q9GV45 28-196): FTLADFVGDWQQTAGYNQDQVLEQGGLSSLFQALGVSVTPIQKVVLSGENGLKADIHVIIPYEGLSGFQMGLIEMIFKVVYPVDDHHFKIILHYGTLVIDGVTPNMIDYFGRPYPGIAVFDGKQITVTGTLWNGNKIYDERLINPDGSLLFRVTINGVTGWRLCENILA
# Measurement description: Substrate specificity of various luciferases: catalytic 19 kDa domain of Oplophorus luciferase
# Format: biochemical, Oplophorus grachlorostris
# Conditions used: relative to coelenterazine = 100
A number alone suffices; assume %.

// lookup Maximum Luminescence Intensity (Imax, %) for "Oc1ccc(-c2cn3c(O)c(Cc4ccccc4)nc3c(Cc3ccccc3)n2)cc1"
92.6

What do we get for "O=c1c(Cc2ccc(F)cc2)nc2c(Cc3ccccc3)[nH]c(-c3ccc(O)cc3)cn1-2" ?
78.6

Proceed to "O=c1c(Cc2ccc(F)cc2)nc2c(Cc3ccccc3)[nH]c(-c3ccccc3)cn1-2"
100

What do we get for "O=c1c(Cc2ccco2)nc2c(Cc3ccccc3)[nH]c(-c3ccccc3)cn1-2" ?
72.2
